tested-system: CRBN/DDB1 (Homo sapiens (Human))
Sequence (Q96SW2 whole entry, species assumed): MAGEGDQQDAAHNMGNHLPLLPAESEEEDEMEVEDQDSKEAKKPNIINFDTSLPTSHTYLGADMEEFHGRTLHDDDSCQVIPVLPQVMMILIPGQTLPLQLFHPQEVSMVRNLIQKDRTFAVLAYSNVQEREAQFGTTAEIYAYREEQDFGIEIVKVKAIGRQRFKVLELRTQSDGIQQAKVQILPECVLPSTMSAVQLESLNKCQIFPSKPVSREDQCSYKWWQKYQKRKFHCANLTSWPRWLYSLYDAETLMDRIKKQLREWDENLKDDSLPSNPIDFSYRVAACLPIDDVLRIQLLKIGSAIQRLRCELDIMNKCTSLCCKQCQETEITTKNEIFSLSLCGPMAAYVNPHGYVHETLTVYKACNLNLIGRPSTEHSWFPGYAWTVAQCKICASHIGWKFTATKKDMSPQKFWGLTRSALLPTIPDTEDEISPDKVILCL
Sequence (Q16531 whole entry partner, species assumed): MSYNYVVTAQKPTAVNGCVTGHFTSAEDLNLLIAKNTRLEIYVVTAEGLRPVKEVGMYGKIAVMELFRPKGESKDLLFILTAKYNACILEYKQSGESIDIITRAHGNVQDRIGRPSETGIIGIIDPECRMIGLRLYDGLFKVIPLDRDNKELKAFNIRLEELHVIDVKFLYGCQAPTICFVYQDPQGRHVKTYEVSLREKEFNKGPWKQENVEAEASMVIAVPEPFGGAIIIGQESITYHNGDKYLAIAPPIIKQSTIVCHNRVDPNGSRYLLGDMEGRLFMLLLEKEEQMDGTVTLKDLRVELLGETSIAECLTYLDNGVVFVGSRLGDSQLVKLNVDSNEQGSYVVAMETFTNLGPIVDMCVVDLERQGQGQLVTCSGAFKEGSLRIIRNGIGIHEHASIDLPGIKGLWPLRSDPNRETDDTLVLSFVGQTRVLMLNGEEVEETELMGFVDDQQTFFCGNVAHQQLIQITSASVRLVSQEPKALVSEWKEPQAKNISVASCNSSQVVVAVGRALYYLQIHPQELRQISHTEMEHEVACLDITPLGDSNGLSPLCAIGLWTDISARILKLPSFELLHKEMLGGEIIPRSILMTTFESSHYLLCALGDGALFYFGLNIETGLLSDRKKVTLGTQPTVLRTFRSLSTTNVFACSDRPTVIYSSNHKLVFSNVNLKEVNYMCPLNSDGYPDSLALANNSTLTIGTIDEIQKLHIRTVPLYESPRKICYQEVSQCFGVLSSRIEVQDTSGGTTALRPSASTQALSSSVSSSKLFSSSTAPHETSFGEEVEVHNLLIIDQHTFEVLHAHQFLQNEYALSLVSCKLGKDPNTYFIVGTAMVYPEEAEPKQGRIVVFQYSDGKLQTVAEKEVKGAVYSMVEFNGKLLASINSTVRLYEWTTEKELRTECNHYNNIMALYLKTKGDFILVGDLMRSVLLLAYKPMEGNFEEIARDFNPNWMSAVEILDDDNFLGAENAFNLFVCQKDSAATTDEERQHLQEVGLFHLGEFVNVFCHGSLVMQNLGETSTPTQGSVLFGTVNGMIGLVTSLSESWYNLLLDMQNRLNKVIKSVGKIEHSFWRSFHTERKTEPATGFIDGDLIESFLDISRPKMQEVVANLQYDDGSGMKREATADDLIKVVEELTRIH
Type: binding
recorded-conditions: His tagged CRBN+DDB1, Cy5-labeled Thalidomide probe, one hour; read-out: CRBN HTRF IC50
Recorded IC50 by entry
observed-property: IC50

1. COc1cc(N2CCC3(CC2)CC(CN2CCN4c5ccc(C(=O)N[C@H]6CCC(=O)NC6=O)nc5OC[C@H]4C2)C3)c(F)cc1[C@@H]1c2ccc(O)cc2CC[C@@H]1c1ccccc1 [Compound A111] | > 5000 nM
2. COc1nc(C(=O)NC2CCC(=O)NC2=O)ccc1N1CCN(CC2CCN(c3ccc([C@@H]4c5ccc(O)cc5CC[C@@H]4c4ccccc4)cc3)CC2)CC1 (single isomer, unassigned) [Compound A1] | 500 to 5000 nM
3. COc1cc(N2CCC3(CC2)CC(CN2CCN4c5ccc6c(c5OC[C@H]4C2)CN([C@H]2CCC(=O)NC2=O)C6=O)C3)ccc1[C@H]1c2ccc(O)cc2CC[C@H]1c1ccccc1 (single isomer, unassigned) [Compound A9] | < 50 nM
4. COc1cc(N2CCC(CN3CCN4c5ccc6c(c5OC[C@H]4C3)CN([C@H]3CCC(=O)NC3=O)C6=O)CC2)c(F)cc1[C@H]1c2ccc(O)cc2CC[C@H]1c1ccccc1 [Compound A39] | 50 to 500 nM
5. O=C1CC[C@H](Nc2ccc(C3CCN(C[C@@H]4COC5(CCN(c6ccc([C@H]7c8ccc(O)cc8CC[C@H]7c7ccccc7)cc6)CC5)C4)CC3)cc2)C(=O)N1 (single isomer, unassigned) [Compound A50] | 50 to 500 nM

* * *

tested-system: ER in MCF-7 cells (Homo sapiens (Human), UniProt P03372)
protocol-notes: In-cell Western (ICW) ER degradation assay in MCF-7 cells
Assay type: cell-based
recorded-conditions: MCF7, MCF-7, maximal ER degradation, 16 hrs treatment; read-out: MCF7 Dmax
Source text: In-cell Western (ICW) assays in MCF-7 and T47D cell lines. Day 3: After 16 hrs of compounds treatment, cells were fixed by 4% PFA and permeabilized with elution buffer (0.1% Triton X-100 in 1% PBS Solution). Subsequently, cells were blocked with Intercept (PBS) Blocking Buffer (Li-COR, Odyssey Blocking Buffer), and were stained with ER (1:500, Cell signaling) primary antibody for overnight at cold room. […]
Recorded Dmax values for a group of compounds are listed next.
observed-property: Dmax

1. O=C1CC[C@H](NC(=O)c2ccc3c(n2)OC[C@H]2CN(CC4CCN(c5ccc([C@@H]6c7ccc(O)cc7CC[C@@H]6c6ccccc6)cc5)CC4)CCN32)C(=O)N1 (single isomer, unassigned) | 50 to 75%
2. O=C1CC[C@H](Nc2ccc(C3CCN(C[C@@H]4COC5(CCN(c6ccc([C@H]7c8ccc(O)cc8CC[C@H]7c7ccccc7)cc6)CC5)C4)CC3)cc2)C(=O)N1 (single isomer, unassigned) | 50 to 75%
3. COc1cc(N2CCC(CCN3CCN4c5cc(C)c6c(c5OC[C@H]4C3)CN([C@H]3CCC(=O)NC3=O)C6=O)CC2)c(F)cc1[C@@H]1c2ccc(O)cc2CC[C@@H]1c1ccccc1 | > 75%
4. O=C1CC[C@H](N2Cc3cc4c(cc3C2=O)OC[C@@H]2CN(CC3CCC5(CC3)CN(c3ccc([C@H]6c7ccc(O)cc7CC[C@H]6c6ccccc6)cc3F)C5)CCN42)C(=O)N1 (single isomer, unassigned) | 25 to 50%
5. O=C1CC[C@@H](Nc2ccc(C3CCN(C[C@@H]4COC5(CCN(c6ccc([C@H]7c8ccc(O)cc8CC[C@H]7c7ccccc7)cc6)CC5)C4)CC3)c(F)c2)C(=O)N1 (single isomer, unassigned) | 25 to 50%

* * *

Each entry below lists one item and its recorded DC50 value.
tested-system: ER in T47D cells (Homo sapiens (Human), UniProt P03372)
Sequence (P03372 whole entry): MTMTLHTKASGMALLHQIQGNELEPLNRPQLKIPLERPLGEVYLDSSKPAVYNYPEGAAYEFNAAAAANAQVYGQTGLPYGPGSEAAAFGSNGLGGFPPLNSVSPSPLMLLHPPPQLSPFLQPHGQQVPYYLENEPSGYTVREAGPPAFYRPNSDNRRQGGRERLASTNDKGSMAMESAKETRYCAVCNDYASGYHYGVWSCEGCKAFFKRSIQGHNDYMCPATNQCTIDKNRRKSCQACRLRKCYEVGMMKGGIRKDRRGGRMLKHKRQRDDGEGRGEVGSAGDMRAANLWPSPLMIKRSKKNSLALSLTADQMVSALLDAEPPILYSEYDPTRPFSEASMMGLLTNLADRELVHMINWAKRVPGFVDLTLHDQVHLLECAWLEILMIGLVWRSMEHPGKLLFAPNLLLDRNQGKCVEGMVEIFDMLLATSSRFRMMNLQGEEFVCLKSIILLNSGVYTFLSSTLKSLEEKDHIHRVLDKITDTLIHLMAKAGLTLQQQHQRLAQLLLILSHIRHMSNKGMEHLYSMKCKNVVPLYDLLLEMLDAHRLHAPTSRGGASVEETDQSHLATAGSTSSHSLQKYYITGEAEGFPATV
protocol-notes: In-cell Western (ICW) ER degradation assay in T47D cells
Assay type: cell-based
recorded-conditions: ER degradation, 16 hrs treatment
From the text: In-cell Western (ICW) assays in MCF-7 and T47D cell lines. Day 3: After 16 hrs of compounds treatment, cells were fixed by 4% PFA and permeabilized with elution buffer (0.1% Triton X-100 in 1% PBS Solution). Subsequently, cells were blocked with Intercept (PBS) Blocking Buffer (Li-COR, Odyssey Blocking Buffer), and were stained with ER (1:500, Cell signaling) primary antibody for overnight at cold room. […]
Where a name gives a salt, the structure may show the parent alone.
observed-property: DC50

1) O=C1CC[C@H](N2Cc3c(ccc4c3OCC43CCN(CC4CCC5(CC4)CN(c4ncc([C@@H]6c7ccc(O)cc7CC[C@@H]6c6ccccc6)cn4)C5)CC3)C2=O)C(=O)N1 | < 1 nM
2) COc1cc(N2CCC(CN3CCC(c4ccc(N[C@@H]5CCC(=O)NC5=O)cc4F)CC3)CC2)ccc1[C@H]1c2ccc(O)cc2CC[C@H]1c1ccccc1 (stereo in doubt) [Compound A84, formate] | 10 to 100 nM
3) COc1cc(N2CCC3(CC2)CC(CN2CCC4(CC2)COc2c4ccc4c2CN([C@H]2CCC(=O)NC2=O)C4=O)C3)c(F)cc1[C@@H]1c2ccc(O)cc2CC[C@@H]1c1ccccc1 | < 1 nM
4) COc1cc(N2CCC(CN3CCC4(CC3)COc3c4ccc4c3CN([C@H]3CCC(=O)NC3=O)C4=O)CC2)ccc1[C@@H]1c2ccc(O)cc2CC[C@@H]1c1ccccc1 | < 1 nM
5) COc1cc(N2CCC3(CC2)CC(CN2CCN4c5ccc6c(c5OC[C@H]4C2)CN([C@H]2CCC(=O)NC2=O)C6=O)C3)ccc1[C@@H]1c2ccc(O)cc2CC[C@@H]1c1ccccc1 (single isomer, unassigned) | < 1 nM
6) O=C1CC[C@H](N2Cc3c(ccc4c3OC[C@H]3CN(CC5COC6(C5)CN(c5ccc([C@@H]7c8ccc(O)cc8CC[C@@H]7c7ccccc7)cc5)C6)CCN43)C2=O)C(=O)N1 (single isomer, unassigned) [Compound A40] | 10 to 100 nM
7) COc1cc(N2CCC3(CC2)CC(CN2CCC(c4ccc(N[C@H]5CCC(=O)NC5=O)cc4F)CC2)C3)ccc1[C@@H]1c2ccc(O)cc2CC[C@@H]1c1ccccc1 (single isomer, unassigned) | 1 to 10 nM
8) COc1cc([C@@H]2c3ccc(O)cc3CC[C@@H]2c2ccccc2)c(F)cc1N1CCC2(CC1)CC(CN1CCN3c4ccc5c(c4OC[C@H]3C1)CN([C@H]1CCC(=O)NC1=O)C5=O)C2 (single isomer, unassigned) | 10 to 100 nM
9) O=C1CC[C@H](N2Cc3c(ccc4c3OC[C@H]3CN(CC5CC6(CCN(c7ccc([C@H]8c9ccc(O)cc9CC[C@H]8c8ccccc8)cn7)CC6)C5)CCN43)C2=O)C(=O)N1 (single isomer, unassigned) | 10 to 100 nM

* * *

tested-system: ER in MCF-7 cells (Homo sapiens (Human))
protocol-notes: In-cell Western (ICW) ER degradation assay in MCF-7 cells
Format: cell-based
recorded-conditions: MCF-7, maximal ER degradation, 16 hrs treatment
observed-property: MCF7 Dmax

1) COc1cc(N2CCC3(CC2)CC(CN2CCC(c4ccc(NC5CCC(=O)NC5=O)cc4F)CC2)C3)ccc1[C@@H]1c2ccc(O)cc2CC[C@@H]1c1ccccc1 (stereo in doubt) | B (“B”: >50 and <75%)
2) O=C1CC[C@H](N2Cc3cc4c(cc3C2=O)OC[C@@H]2CN(CC3CCC5(CC3)CN(c3ccc([C@@H]6c7ccc(O)cc7CC[C@@H]6c6ccccc6)cn3)C5)CCN42)C(=O)N1 [Compound A124] | B (“B”: >50 and <75%)

* * *

tested-system: ER in MCF-7 cells (Homo sapiens (Human), UniProt P03372)
protocol-notes: In-cell Western (ICW) ER degradation assay in MCF-7 cells
Format: cell-based
recorded-conditions: MCF-7, ER degradation, 16 hrs treatment; read-out: MCF7 DC50
Text: In-cell Western (ICW) assays in MCF-7 and T47D cell lines. Day 3: After 16 hrs of compounds treatment, cells were fixed by 4% PFA and permeabilized with elution buffer (0.1% Triton X-100 in 1% PBS Solution). Subsequently, cells were blocked with Intercept (PBS) Blocking Buffer (Li-COR, Odyssey Blocking Buffer), and were stained with ER (1:500, Cell signaling) primary antibody for overnight at cold room. […]
Below is a list of entries, each paired with its recorded DC50 value.
observed-property: DC50

1) O=C1CC[C@H](N2Cc3cc4c(cc3C2=O)OC[C@@H]2CN(CC3CC5(CCN(c6ccc([C@H]7c8ccc(O)cc8CC[C@H]7c7ccccc7)cc6F)CC5)C3)CCN42)C(=O)N1 (single isomer, unassigned) | 1 to 10 nM
2) COc1cc(N2CCC3(CC2)CC(CN2CCC(c4ccc(N[C@@H]5CCC(=O)NC5=O)cc4)CC2)C3)c(F)cc1[C@H]1c2ccc(O)cc2CC[C@H]1c1ccccc1 (single isomer, unassigned) | 10 to 100 nM
3) COc1cc(N2CCC3(CC2)C[C@@H](CN2CCN4c5ccc6c(c5OC[C@H]4C2)CN([C@H]2CCC(=O)NC2=O)C6=O)CO3)ccc1[C@@H]1c2ccc(O)cc2CC[C@@H]1c1ccccc1 (single isomer, unassigned) | < 1 nM
4) O=C1CC[C@H](N2Cc3c(ccc4c3OCC43CCN(C[C@@H]4COC5(C4)CN(c4ccc([C@@H]6c7ccc(O)cc7CC[C@@H]6c6ccccc6)cc4)C5)CC3)C2=O)C(=O)N1 | < 1 nM
5) O=C1CC[C@H](N2Cc3c4c(cc(Cl)c3C2=O)C2(CCN(C[C@H]3CCC5(CCN(c6ccc([C@@H]7c8ccc(O)cc8CC[C@@H]7c7ccccc7)cc6)CC5)OC3)CC2)CO4)C(=O)N1 | < 1 nM
6) COc1cc(N2CC3(CC(CN4CCN5c6ccc7c(c6OC[C@H]5C4)CN([C@H]4CCC(=O)NC4=O)C7=O)C3)C2)c(F)cc1[C@@H]1c2ccc(O)cc2CC[C@@H]1c1ccccc1 | < 1 nM
7) O=C1CC[C@H](N2Cc3cc4c(cc3C2=O)OC[C@H]2CN(C[C@H]3COC5(CCN(c6ccc([C@H]7c8ccc(O)cc8CC[C@H]7c7ccccc7)cc6)CC5)C3)CCN42)C(=O)N1 (single isomer, unassigned) | 1 to 10 nM
8) O=C1CC[C@@H](Nc2ccc(C3CCN(CC4CCC5(CC4)CN(c4ccc([C@@H]6c7ccc(O)cc7CC[C@@H]6c6ccccc6)cc4)C5)CC3)cc2)C(=O)N1 (single isomer, unassigned) | 1 to 10 nM
9) O=C1CC[C@H](N2Cc3c(ccc4c3OC[C@H]3CN(CC5CC6(CCN(c7ccc([C@H]8c9ccc(O)cc9CC[C@H]8c8ccccc8)cn7)CC6)C5)CCN43)C2=O)C(=O)N1 (single isomer, unassigned) | 10 to 100 nM
10) COc1cc(N2CCC(CN3CCN4c5ccc(C(=O)N[C@H]6CCC(=O)NC6=O)nc5OC[C@H]4C3)CC2)c(F)cc1[C@@H]1c2ccc(O)cc2CC[C@@H]1c1ccccc1 | < 1 nM
11) COc1cc(N2CCC(CN3CC[C@]4(c5ccc(N[C@@H]6CCC(=O)NC6=O)cc5)[C@H](C3)C4(F)F)CC2)ccc1[C@@H]1c2ccc(O)cc2CC[C@@H]1c1ccccc1 | < 1 nM
12) O=C1CCC(Nc2ccc(C34CCN(C[C@H]5COC6(CCN(c7ccc([C@@H]8c9ccc(O)cc9CC[C@@H]8c8ccccc8)cc7)CC6)C5)CC3C4(F)F)cc2)C(=O)N1 (stereo partly drawn) | > 100 nM
13) COc1cc(N2CCC3(CC2)CC(CN2CCN4c5ccc(C(=O)N[C@H]6CCC(=O)NC6=O)nc5OC[C@@H]4C2)C3)ccc1[C@H]1c2ccc(O)cc2CC[C@H]1c1ccccc1 (single isomer, unassigned) | < 1 nM
14) O=C1CC[C@@H](Nc2ccc([C@@]34CCN(CC5CCC6(CC5)CN(c5ccc([C@@H]7c8ccc(O)cc8CC[C@@H]7c7ccccc7)cc5)C6)C[C@@H]3C4(F)F)cc2)C(=O)N1 | 1 to 10 nM
15) COc1cc2c(c3c1C(=O)N([C@H]1CCC(=O)NC1=O)C3)OCC21CCN(C[C@H]2CCC3(CCN(c4ccc([C@@H]5c6ccc(O)cc6CC[C@@H]5c5ccccc5)cc4)CC3)OC2)CC1 | < 1 nM
16) COc1cc(N2CCC(CN3CCN4c5ccc6c(c5OC[C@@H]4C3)CN([C@@H]3CCC(=O)NC3=O)C6=O)CC2)ccc1[C@H]1c2ccc(O)cc2CC[C@H]1c1ccccc1 (stereo in doubt) | < 1 nM
17) O=C1CC[C@H](Nc2ccc(C3CCN(C[C@@H]4COC5(CCN(c6ccc([C@H]7c8ccc(O)cc8CC[C@H]7c7ccccc7)cc6)CC5)C4)CC3)c(F)c2)C(=O)N1 (single isomer, unassigned) | < 1 nM
18) COc1cc(N2CC3(CC(CN4CCN5c6ccc7c(c6OC[C@H]5C4)CN([C@H]4CCC(=O)NC4=O)C7=O)CO3)C2)ccc1[C@H]1c2ccc(O)cc2CC[C@H]1c1ccccc1 (single isomer, unassigned) | 10 to 100 nM
